Consider compounds characterized by their pKi with Mu-type opioid receptor (Rattus norvegicus).
Sequence (P33535 whole entry): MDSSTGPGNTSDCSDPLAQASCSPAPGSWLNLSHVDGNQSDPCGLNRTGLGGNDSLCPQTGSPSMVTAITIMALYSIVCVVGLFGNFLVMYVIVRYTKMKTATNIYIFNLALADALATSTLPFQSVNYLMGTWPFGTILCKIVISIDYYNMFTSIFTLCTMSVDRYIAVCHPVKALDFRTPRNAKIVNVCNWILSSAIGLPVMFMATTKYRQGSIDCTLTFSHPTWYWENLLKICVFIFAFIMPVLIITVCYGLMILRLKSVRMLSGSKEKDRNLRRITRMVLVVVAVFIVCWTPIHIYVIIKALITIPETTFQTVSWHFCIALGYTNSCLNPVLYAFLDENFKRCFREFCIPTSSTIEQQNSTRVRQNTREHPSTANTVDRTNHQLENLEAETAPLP
One number for each entry, as −log10 of the molar value.

Please review the entries below; each comes with its answer.
(Q) Look up pKi: `NC(=O)[C@H](Cc1ccccc1)NC(=O)CN1Cc2ccccc2C[C@H](NC(=O)[C@@H](N)Cc2ccc(O)cc2)C1=O`
(A) 9.43

(Q) For the compound shown here, `NC(=O)[C@H](Cc1ccccc1)NC(=O)CN1Cc2ccccc2C[C@]2(CCCN2C(=O)[C@@H](N)Cc2ccc(O)cc2)C1=O` , give the reported pKi.
(A) 10.53

(Q) Quick one: pKi for `NC(=O)[C@H](Cc1ccccc1)NC(=O)CN1Cc2ccccc2C[C@@]2(CCCN2C(=O)[C@@H](N)Cc2ccc(O)cc2)C1=O` ?
(A) 8.06

***
(Q) Name the recorded pKi for `NC(=O)[C@H](Cc1ccccc1)NC(=O)CN1Cc2ccccc2C[C@@H](NC(=O)[C@@H](N)Cc2ccc(O)cc2)C1=O` .
(A) 8.65

* * *

SYSTEM: Mu-type opioid receptor (Mus musculus, UniProt P42866)
Sequence (P42866 whole entry): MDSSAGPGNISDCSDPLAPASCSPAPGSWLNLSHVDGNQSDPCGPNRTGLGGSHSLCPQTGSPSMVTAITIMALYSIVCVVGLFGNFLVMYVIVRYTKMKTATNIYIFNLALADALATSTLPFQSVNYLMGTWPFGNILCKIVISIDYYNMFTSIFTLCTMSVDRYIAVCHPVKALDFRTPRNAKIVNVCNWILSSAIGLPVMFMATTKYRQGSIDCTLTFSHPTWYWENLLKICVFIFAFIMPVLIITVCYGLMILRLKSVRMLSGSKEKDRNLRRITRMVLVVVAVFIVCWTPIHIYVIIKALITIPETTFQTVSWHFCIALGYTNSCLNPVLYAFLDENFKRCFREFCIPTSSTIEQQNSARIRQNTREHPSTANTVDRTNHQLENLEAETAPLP
EXPERIMENT: Agonist activity at mu opioid receptor in NMRI mouse vas deferens assessed as inhibition of electrically-stimulated muscle contraction
ENDPOINT LABEL: IC50 (nM)
Answers are plain numbers, in nM.

(Q) GET /values?readout=IC50&system=Mu-type opioid receptor (Mus musculus, UniProt P42866)&item= `NC(=O)[C@H](Cc1ccccc1)NC(=O)CN1Cc2ccccc2C[C@]2(CCCN2C(=O)[C@@H](N)Cc2ccc(O)cc2)C1=O`
(A) 49.8

* * *

So I've got a bunch of molecules here, and I need their half-life values.
EXPERIMENT: Stability in rat brain assessed as half life
Format: ADME, tissue-based
Answers are plain numbers, in h.

Reference set (2 entries):
(Q) Tell me the measured half-life of NC(=O)[C@H](Cc1ccccc1)NC(=O)[C@H](Cc1ccccc1)NC(=O)[C@@H]1CCCN1C(=O)[C@@H](N)Cc1ccc(O)cc1 [ENDOMORPHIN 2] , please.
(A) 0.0633

(Q) Give its half-life value. Item: `NC(=O)[C@H](Cc1ccccc1)NC(=O)CN1Cc2ccccc2C[C@@H](NC(=O)[C@@H](N)Cc2ccc(O)cc2)C1=O`
(A) 3.3

Turning now to a further molecule:
(Q) I have this molecule here, `NC(=O)[C@H](Cc1ccccc1)NC(=O)CN1Cc2ccccc2C[C@H](NC(=O)[C@@H](N)Cc2ccc(O)cc2)C1=O` , and I need its recorded half-life.
(A) 0.0117

* * *

SYSTEM: Delta-type opioid receptor (Rattus norvegicus, UniProt P33533)
Sequence (P33533 whole entry): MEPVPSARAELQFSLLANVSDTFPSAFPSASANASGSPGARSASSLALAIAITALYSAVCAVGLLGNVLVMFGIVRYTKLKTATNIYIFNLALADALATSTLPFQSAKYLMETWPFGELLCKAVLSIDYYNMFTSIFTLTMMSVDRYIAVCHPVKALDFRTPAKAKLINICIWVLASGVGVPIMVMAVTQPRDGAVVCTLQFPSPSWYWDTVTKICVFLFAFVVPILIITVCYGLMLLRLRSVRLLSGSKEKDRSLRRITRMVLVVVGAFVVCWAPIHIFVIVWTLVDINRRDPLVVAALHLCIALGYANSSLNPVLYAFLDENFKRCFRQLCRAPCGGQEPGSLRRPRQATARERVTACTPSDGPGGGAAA
EXPERIMENT: Displacement of [3H]deltorphin 2 from delta opioid receptor in Wistar rat brain after 45 mins
Would you mind telling me the reported Ki of each entry?
Give bare numbers, in nM.

(Q) State its Ki on Delta-type opioid receptor (Rattus norvegicus, UniProt P33533): `NC(=O)[C@H](Cc1ccccc1)NC(=O)CN1Cc2ccccc2C[C@H](NC(=O)[C@@H](N)Cc2ccc(O)cc2)C1=O`
(A) 0.778

For each listed entry, give its Ki.
1. NC(=O)[C@H](Cc1ccccc1)NC(=O)CN1Cc2ccccc2C[C@@]2(CCCN2C(=O)[C@@H](N)Cc2ccc(O)cc2)C1=O
2. NC(=O)[C@H](Cc1ccccc1)NC(=O)CN1Cc2ccccc2C[C@@H](NC(=O)[C@@H](N)Cc2ccc(O)cc2)C1=O

(A)
2.31
2.96

Origin of measurements: ChEMBL document CHEMBL1140695
